Target: Protein farnesyltransferase (Homo sapiens, UniProt P49354+P49356)
Test: Activity against Ras Farnesyltransferase from Burkett's lymphoma.
Type: protein-complex assay
pIC50: −log10 of the molar value.
Observable: pIC50

>  <Mol smiles>
CSC[C@H](NC(=O)c1cccc(CNC(=O)[C@@H](N)CS)c1)C(=O)O

>  <Val>
6.92

$$$$

----------
Biological target: Protein farnesyltransferase (Homo sapiens, UniProt P49354+P49356)
Test: Inhibition of Ras processing in v-Ras-transformed cells
Type: functional, cell-based
Observable: IC50 (µM)

>  <Mol smiles>
CSCC[C@H](NC(=O)[C@H](Cc1ccccc1)NC[C@@H](NC[C@@H](N)CS)C(C)C)C(=O)O

>  <Target of assay>
Protein farnesyltransferase (Homo sapiens, UniProt P49354+P49356)

>  <Val>
50

$$$$

----------
System: NIH3T3
Experiment: Activity against H-Ras transformed NIH3T3 fibroblasts in a clonogenic assay
Format: functional, cell-based
Settings: Mus musculus
pIC50: −log10 of the molar value.

>  <Mol smiles>
O=C(CN(Cc1ccc(OCc2ccccc2)cc1)C(=O)[C@H](Cc1c[nH]cn1)NC(=O)OCc1ccccc1)NCCc1ccccc1

>  <pIC50>
5.36

$$$$

----------
Biological target: Farnesyltransferase (Saccharomyces cerevisiae S288c, UniProt P22007+P29703)
Sequence (P29703 whole entry): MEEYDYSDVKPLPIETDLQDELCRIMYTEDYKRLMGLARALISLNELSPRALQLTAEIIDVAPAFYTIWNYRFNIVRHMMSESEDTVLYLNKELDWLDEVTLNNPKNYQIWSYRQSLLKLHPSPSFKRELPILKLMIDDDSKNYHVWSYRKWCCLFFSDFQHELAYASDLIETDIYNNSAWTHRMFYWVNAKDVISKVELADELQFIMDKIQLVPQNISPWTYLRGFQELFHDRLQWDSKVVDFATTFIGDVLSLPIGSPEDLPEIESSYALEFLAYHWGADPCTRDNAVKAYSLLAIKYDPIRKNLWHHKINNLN
Sequence (P22007 whole entry): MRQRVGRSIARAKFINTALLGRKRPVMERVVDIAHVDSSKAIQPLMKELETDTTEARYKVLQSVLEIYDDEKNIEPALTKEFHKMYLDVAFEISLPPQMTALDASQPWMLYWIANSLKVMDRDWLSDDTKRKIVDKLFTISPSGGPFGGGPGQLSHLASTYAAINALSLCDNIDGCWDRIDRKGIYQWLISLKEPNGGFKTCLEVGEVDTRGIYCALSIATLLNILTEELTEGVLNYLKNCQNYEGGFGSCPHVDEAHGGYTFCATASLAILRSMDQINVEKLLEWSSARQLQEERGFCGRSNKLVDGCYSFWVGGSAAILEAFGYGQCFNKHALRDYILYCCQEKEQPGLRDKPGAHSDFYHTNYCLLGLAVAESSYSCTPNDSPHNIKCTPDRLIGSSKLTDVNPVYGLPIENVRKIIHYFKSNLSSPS
Assay: Activity against yeast Farnesyltransferase
Observable: IC50 (µM)

>  <Compound>
CCCCC(C)/C=C(C)/C=C(\C)CC(=O)NC1=CC(O)(/C=C/C=C/C=C/C(=O)NC2=C(O)CCC2=O)C2OC2C1=O (stereo unspecified)

>  <Val>
5

$$$$

----------
Target: Protein farnesyltransferase (Homo sapiens, UniProt P49354+P49356)
Assay: Activity against Ras Farnesyltransferase from human colon carcinoma
Type: protein-complex assay
Observable: IC50 (nM)

>  <Mol smiles>
CSC[C@H](NC(=O)c1cccc(CNC(=O)[C@@H](N)CS)c1)C(=O)O

>  <Target of assay>
Protein farnesyltransferase (Homo sapiens, UniProt P49354+P49356)

>  <Measurement unit>
nM

>  <Val>
60

$$$$

----------
Target: Protein farnesyltransferase (Mus musculus, UniProt Q61239+Q8K2I1)
Assay: Inhibition of Ras-processing in H-Ras transformed NIH3T3 fibroblasts
Format: functional, cell-based
pIC50: −log10 of the molar value.

>  <Mol smiles>
C[C@@H](NC(=O)[C@H](Cc1c[nH]c2ccccc12)NC(=O)[C@H](COCc1ccccc1)NC(=O)[C@H](Cc1ccc(OCc2ccccc2)cc1)NC(=O)[C@H](Cc1c[nH]cn1)NC(=O)OCc1ccccc1)C(N)=O

>  <pIC50>
6.38

$$$$

----------
Molecular target: Protein farnesyltransferase (Bos taurus, UniProt P29702+P49355)
Assay: Activity against bovine Farnesyltransferase
pIC50: −log10 of the molar value.
// reported pIC50 per item

>  <Compound>
CCC(=O)O[C@H](C[C@@]1(C)[C@H](C)CCC(=O)[C@@H]1C)/C(C)=C/Cc1c(O)cc(C)c(C=O)c1O

>  <Target of assay>
Protein farnesyltransferase (Bos taurus, UniProt P29702+P49355)

>  <pIC50>
5.66

$$$$
>  <Compound>
CCC(C)[C@@H](CO[C@@H](Cc1ccccc1)C(=O)N[C@@H](CCS(C)(=O)=O)C(=O)OC)NC[C@@H](N)CS (stereo partly drawn)

>  <Target of assay>
Protein farnesyltransferase (Bos taurus, UniProt P29702+P49355)

>  <pIC50>
6.62

$$$$
>  <Compound>
CCC(C)[C@@H](CO[C@@H](Cc1ccccc1)C(=O)N[C@@H](CCS(C)(=O)=O)C(=O)O)NC[C@@H](N)CS (stereo partly drawn)

>  <Target of assay>
Protein farnesyltransferase (Bos taurus, UniProt P29702+P49355)

>  <pIC50>
6.62

$$$$
>  <Compound>
CC[C@H](C)[C@H](NC[C@@H](NC[C@@H](N)CS)[C@@H](C)CC)C(=O)N[C@@H](CCO)C(=O)O

>  <Target of assay>
Protein farnesyltransferase (Bos taurus, UniProt P29702+P49355)

>  <pIC50>
7.74

$$$$
>  <Compound>
CC[C@@H](C)[C@H](NC[C@@H](NC[C@@H](N)CS)[C@H](C)CC)C(=O)N[C@H]1CCOC1=O

>  <Target of assay>
Protein farnesyltransferase (Bos taurus, UniProt P29702+P49355)

>  <pIC50>
6.55

$$$$
>  <Compound>
COC(=O)C1=CC(CO)=COc2oc3cccc(O)c3c(=O)c21

>  <Target of assay>
Protein farnesyltransferase (Bos taurus, UniProt P29702+P49355)

>  <pIC50>
6.00

$$$$
>  <Compound>
COCC[C@@H]1CN(C(=O)c2cccc3ccccc23)CCN1C[C@H](N)CS

>  <Target of assay>
Protein farnesyltransferase (Bos taurus, UniProt P29702+P49355)

>  <pIC50>
8.30

$$$$
>  <Compound>
O=C1C=C[C@]23Oc4ccc(O)c5c4[C@](Oc4cccc1c42)(O3)C1OC1C5=O (stereo partly drawn)

>  <Target of assay>
Protein farnesyltransferase (Bos taurus, UniProt P29702+P49355)

>  <pIC50>
5.92

$$$$
